Where do these numbers come from? They come from ChEMBL document CHEMBL1123662.

Protocol: Estrogen receptor binding affinity using [3H]estradiol in a competitive radioreceptor binding assay.
Strictly below 10 in relative binding affinity (RBA): Criterion met. Otherwise: Criterion not met.

Use the examples below as a reference point.
Compound: CCC(c1ccc(O)cc1)C(CSCCCCCNc1ccc([N+](=O)[O-])c2nonc12)c1ccc(O)cc1 (stereo unspecified)
Cat: Criterion met
//
Compound: CCC(c1ccc(O)cc1)C(CSCCCCCCNc1ccc([N+](=O)[O-])c2nonc12)c1ccc(O)cc1 (stereo unspecified)
Cat: Criterion met
//
Compound: CCC(c1ccc(O)cc1)C(CSCCCCCCCNS(=O)(=O)c1cccc2c(N(C)C)cccc12)c1ccc(O)cc1 (stereo unspecified)
Cat: Criterion met
//
Compound: CCC(c1ccc(O)cc1)C(CC)c1ccc(O)c(I)c1 (stereo unspecified)
Cat: Criterion not met
//
Compound: CCC(c1ccc(O)cc1)C(CC)c1ccc(O)c(N=[N+]=[N-])c1 (stereo unspecified)
Cat: Criterion not met
//
Compound: CCC(c1ccc(O)cc1)C(CSCCCCCCCN1C(=O)c2ccccc2C1=O)c1ccc(O)cc1 (stereo unspecified)
Cat: Criterion met
//
Compound: C=CCc1cc(C(CC)C(CC)c2ccc(O)cc2)ccc1O (stereo unspecified)
Cat: Criterion not met
//
Compound: CCCCSCCC(c1ccc(O)cc1)C(CC)c1ccc(O)cc1 (stereo unspecified)
Cat: Criterion not met
//
Compound: CCC(c1ccc(O)cc1)C(CSCCCCNc1ccc([N+](=O)[O-])c2nonc12)c1ccc(O)cc1 (stereo unspecified)
Cat: Criterion met
//
Compound: CCC(c1ccc(O)cc1)C(CC)c1ccc(O)c(CCCNS(=O)(=O)c2cccc3c(N(C)C)cccc23)c1 (stereo unspecified)
Cat: Criterion met

Challenge: Please let me know if CCC(c1ccc(O)cc1)C(CCOCCOCCCl)c1ccc(O)cc1 (stereo unspecified) shows relative binding affinity (RBA) below 10.
Response given: Criterion not met
